B1: EEHEE_rd3_0130 (parent)
chain: TKIIVNGKTFTAPTEEEAQKIAEKLAKKAGLTVHKKNGTFELK

variants of: B1; test: folding stability dG (cDNA display proteolysis); higher = more stable; conditions: PBS, room temperature
Lab note: anything with folding stability dG at or over 0.09 kcal/mol counts as fulfilled; the rest go in not fulfilled.

{"columns": ["SEQUENCE", "ANSWER_LABEL"],
 "data": [
  ["TKIIVNGKTFTAPTEEEAQKIAEKLAKKAGLTVHKKNETFELK [G38E]", "not fulfilled"],
  ["TKIIVNGKTFTAPTEEEAQKIAEKLAKKAGLTVHKKNGTFEMK [L42M]", "not fulfilled"],
  ["TKIIVNGKTFTAPTEEEAQHIAEKLAKKAGLTVHKKNGTFELK [K20H]", "fulfilled"],
  ["TKIIVNGKTFTAPTEEEAQKIAEKLAKAAGLTVHKKNGTFELK [K28A]", "fulfilled"],
  ["TEIIVNGKTFTAPTEEEAQKIAEKLAKKAGLTVHKKNGTFELK [K2E]", "not fulfilled"]
]}

Does the reported folding stability dG for TKIIGNGKTFTAPTEEEAQKIAEKLAKKAGLTVHKKNGTFELK [V5G] fall at or above the 0.09 kcal/mol mark?
not fulfilled

Ok, now TKIIVNGKTFTAPTEEEAQKDAEKLAKKAGLTVHKKNGTFELK [I21D]
not fulfilled

Also TKIIVNGKTFTAPTEEEAQKIAEKLAKKYGLTVHKKNGTFELK [A29Y] , if possible.
fulfilled

Now this one: TKIIQNGKTFTAPTEEEAQKIAEKLAKKAGLTVHKKNGTFELK [V5Q]
not fulfilled

Try this variant too: TDIIVNGKTFTAPTEEEAQKIAEKLAKKAGLTVHKKNGTFELK [K2D]
fulfilled

Cool, now TKIIVNGKTFTAPTEEEAQKIAEKLAKKNGLTVHKKNGTFELK [A29N]
fulfilled
